molecular target: PI3K alfa (Homo sapiens, UniProt P42336); construct: for the p110-a subunit (with a deletion of the first 20 amino acids); His tag (C); made in house; host or cells: baculovirus; Tn5 (Trichoplusia ni) or TiniPro insect cells; test: PI3 kinase assay (Kinase-Glo luminescence), PI3K alfa; format: biochemical; conditions: Enzymatic Data; read-out: PI3K alfa IC50 [umol]
Sequence (P42336 with tags, fused parts or gaps limits assumed): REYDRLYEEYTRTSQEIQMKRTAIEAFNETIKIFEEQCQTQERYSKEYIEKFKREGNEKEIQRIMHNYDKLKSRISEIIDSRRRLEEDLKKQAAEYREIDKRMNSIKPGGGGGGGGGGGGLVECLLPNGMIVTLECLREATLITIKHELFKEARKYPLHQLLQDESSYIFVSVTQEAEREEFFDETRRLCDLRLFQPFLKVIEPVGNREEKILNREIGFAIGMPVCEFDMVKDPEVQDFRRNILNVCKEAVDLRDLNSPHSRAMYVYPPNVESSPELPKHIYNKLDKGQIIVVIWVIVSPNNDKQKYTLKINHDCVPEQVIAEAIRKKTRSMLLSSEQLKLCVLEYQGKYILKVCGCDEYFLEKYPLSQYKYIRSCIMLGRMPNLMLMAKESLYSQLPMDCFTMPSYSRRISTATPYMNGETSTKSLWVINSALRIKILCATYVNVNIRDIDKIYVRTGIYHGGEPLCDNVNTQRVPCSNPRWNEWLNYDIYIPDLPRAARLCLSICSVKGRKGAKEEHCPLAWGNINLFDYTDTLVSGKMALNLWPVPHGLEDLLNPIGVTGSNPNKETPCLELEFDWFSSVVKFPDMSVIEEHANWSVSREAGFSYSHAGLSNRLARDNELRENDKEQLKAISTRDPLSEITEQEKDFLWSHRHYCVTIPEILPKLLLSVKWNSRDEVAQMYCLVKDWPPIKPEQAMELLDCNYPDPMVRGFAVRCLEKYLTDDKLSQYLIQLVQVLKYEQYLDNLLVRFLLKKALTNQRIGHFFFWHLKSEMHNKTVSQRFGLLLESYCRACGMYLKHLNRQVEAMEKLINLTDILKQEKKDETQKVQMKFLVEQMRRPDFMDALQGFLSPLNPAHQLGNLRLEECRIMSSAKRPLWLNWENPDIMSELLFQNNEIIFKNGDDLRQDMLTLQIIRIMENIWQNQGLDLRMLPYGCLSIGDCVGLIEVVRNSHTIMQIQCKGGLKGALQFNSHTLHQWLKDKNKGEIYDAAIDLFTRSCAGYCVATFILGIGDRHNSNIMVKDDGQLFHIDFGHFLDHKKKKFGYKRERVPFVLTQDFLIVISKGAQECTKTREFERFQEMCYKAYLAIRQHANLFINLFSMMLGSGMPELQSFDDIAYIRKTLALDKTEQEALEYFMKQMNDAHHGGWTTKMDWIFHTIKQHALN
# log10(IC50) annotations
Hi team, quick reminder: these entries are log10 of IC50 (µM).

These solved cases illustrate the format of a correct answer.
COc1cc(-c2ccc3ncc(-c4cnc(N)c(C(F)(F)F)c4)n3n2)ccc1OCCNC(=O)C(C)C	-1.44
COc1cc(-c2cnc3ccc(-c4cnc(N)c(C(F)(F)F)c4)nn23)ccc1C(=O)N1CCN(Cc2ccccn2)CC1	-2.52
O=C(NCCCOc1ccc(-c2ccc3ncc(-c4cnc5[nH]ccc5c4)n3n2)cc1)C1CC1	-0.86
Nc1ncc(-c2ccc3ncc(-c4ccc5c(cnn5CCN5CCOCC5)c4)n3n2)cc1C(F)(F)F	-1.59

Please turn your attention to the following entry.
Q. Tell me log10(IC50) reported for COc1cc(-c2cnc3ccc(-c4cnc(N)c(C(F)(F)F)c4)nn23)c(F)cc1C(=O)NCCCN1CCOCC1
A. -1.74
